Source listed as patent US20130040935A1.

For each entry below, report its pIC50 value.
# Target entity: human ACC2 (acetyl-coenzyme A carboxylase 2) (Homo sapiens, UniProt O00763)
# Sequence (O00763 27-2458 limits assumed): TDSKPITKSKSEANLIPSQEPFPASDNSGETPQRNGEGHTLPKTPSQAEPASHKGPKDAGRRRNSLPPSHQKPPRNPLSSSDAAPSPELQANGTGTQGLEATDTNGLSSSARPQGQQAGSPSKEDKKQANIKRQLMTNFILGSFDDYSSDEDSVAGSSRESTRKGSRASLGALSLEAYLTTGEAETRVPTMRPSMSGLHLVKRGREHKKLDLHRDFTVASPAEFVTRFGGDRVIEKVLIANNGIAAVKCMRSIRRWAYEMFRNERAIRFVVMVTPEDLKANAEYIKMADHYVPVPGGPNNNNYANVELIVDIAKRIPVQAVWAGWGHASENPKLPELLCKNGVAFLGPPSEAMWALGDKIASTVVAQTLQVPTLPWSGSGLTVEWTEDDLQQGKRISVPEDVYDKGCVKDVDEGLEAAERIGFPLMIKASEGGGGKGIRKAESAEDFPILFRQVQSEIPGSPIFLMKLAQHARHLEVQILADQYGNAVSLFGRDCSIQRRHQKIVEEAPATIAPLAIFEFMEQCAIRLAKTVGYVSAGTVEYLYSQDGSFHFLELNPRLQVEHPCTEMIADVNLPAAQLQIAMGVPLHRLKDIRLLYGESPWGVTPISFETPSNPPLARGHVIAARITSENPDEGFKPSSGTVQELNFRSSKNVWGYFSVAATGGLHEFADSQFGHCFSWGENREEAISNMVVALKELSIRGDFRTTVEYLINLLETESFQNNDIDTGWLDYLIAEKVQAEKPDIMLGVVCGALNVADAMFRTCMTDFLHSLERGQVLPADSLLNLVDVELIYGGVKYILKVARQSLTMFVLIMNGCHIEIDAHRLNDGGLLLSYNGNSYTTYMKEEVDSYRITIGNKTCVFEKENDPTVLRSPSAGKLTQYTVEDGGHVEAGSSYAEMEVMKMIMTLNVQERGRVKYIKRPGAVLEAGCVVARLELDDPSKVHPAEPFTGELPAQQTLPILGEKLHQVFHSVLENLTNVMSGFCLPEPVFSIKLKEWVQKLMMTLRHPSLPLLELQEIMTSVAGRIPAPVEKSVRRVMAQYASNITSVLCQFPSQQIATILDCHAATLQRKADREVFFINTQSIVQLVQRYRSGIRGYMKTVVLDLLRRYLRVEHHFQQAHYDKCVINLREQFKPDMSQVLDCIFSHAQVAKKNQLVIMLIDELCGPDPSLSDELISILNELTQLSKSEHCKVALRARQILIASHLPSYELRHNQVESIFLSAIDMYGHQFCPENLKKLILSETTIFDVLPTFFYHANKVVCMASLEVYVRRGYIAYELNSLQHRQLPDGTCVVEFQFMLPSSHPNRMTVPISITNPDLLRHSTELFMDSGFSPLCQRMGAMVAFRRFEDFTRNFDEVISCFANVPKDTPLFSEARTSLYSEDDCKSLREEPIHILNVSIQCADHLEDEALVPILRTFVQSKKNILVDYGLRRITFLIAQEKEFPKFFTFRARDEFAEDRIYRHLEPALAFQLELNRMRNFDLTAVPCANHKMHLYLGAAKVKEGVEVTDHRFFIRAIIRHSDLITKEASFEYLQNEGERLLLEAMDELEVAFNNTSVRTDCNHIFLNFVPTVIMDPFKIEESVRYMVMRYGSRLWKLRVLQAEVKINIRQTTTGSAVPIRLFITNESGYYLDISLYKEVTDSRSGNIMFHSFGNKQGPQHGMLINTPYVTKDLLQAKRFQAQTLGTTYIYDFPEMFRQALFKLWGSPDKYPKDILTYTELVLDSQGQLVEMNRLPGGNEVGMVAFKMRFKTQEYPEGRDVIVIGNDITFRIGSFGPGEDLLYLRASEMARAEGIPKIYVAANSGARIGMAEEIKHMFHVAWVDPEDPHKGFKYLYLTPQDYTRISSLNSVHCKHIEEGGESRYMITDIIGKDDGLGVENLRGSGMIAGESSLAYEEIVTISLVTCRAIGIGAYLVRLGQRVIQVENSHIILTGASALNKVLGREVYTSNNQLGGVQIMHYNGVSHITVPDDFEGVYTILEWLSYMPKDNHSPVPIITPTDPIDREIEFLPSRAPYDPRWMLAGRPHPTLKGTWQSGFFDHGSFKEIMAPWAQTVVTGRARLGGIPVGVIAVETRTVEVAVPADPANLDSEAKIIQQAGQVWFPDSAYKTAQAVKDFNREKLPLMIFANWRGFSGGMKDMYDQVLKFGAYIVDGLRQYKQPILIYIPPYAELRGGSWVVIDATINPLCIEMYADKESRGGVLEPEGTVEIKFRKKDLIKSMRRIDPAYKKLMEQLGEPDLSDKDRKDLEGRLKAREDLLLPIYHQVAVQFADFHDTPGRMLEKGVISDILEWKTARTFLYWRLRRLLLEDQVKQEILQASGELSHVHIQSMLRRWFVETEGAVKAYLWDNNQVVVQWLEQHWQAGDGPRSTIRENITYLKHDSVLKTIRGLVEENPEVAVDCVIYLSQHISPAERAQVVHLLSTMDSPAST
# Experiment description: Human ACC2 enzyme assay, Assay B2 (ADP-Glo);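 further: human ACC2 activity read as ADP product, detected by luciferase glow luminescence after residual ATP removal, enzyme near 2 ng/µl in linear range, detection steps at 22 °C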
As a rule, pIC50 stands for the negative log10 of the concentration, concentration in M.

// query Answer with reported pIC50 of Cc1ccc(-c2ccc(Cl)cc2)cc1C1=C(O)C2(CCCCCC2)CC1=O
// result 5.14

// query Complete the entry with pIC50 for Cc1ccc(-c2ccc(Cl)cc2)cc1C1=C(O)C2(Cc3ccccc3C2)NC1=O
// result 5.42

// query Return value of pIC50 for input Cc1ccc(-c2ccc(Cl)cc2)cc1C1=C(O)[C@@]2(CCC[C@H](C(F)(F)F)C2)NC1=O , no commentary.
// result 5.09

// query Determine its reported pIC50: Cc1cc(C)c(-c2ccc(Cl)cc2)cc1C1=C(O)C2(CCCOC2)OC1=O (stereo not drawn)
// result 5.28

// query Tell us which pIC50 value is on record for Cc1ccc(-c2ccc(Cl)cc2)cc1C1=C(O)C2(CCCCCC2)NC1=O
// result 5.51

// query Please indicate pIC50 recorded for CO[C@H]1CC[C@]2(CC1)NC(=O)C(c1cc(-c3ccc(Cl)c(F)c3)cc(F)c1C)=C2O
// result 5.05

* * *

# Target entity: human ACC1 (acetyl-coenzyme A carboxylase alpha transcript variant 1) (Homo sapiens, UniProt Q13085)
# Construct: FLAG (C); made in house; host or cells: baculovirus-infected insect cells (Hi5)
# Experiment description: Human ACC1 enzyme assay, Assay B1 (ADP-Glo)
# Format: biochemical
Measured parameter: pIC50
Recall that pIC50 is obtained by taking minus log10 of the concentration measured in molar.

// query Specify reported pIC50 for the compound shown: Cc1cc(C)c(-c2ccc(Cl)cc2)cc1C1=C(O)[C@]2(CC[C@@]3(CCCO3)CC2)OC1=O
// result 6.16

// query Output pIC50 of COCCO[C@@H]1CCC[C@]2(C1)NC(=O)C(c1cc(-c3ccc(Cl)cc3)ccc1Cl)=C2O (relative stereo)
// result 5.62

// query Name the recorded pIC50 of the item Cc1ccc(-c2ccc(F)c(F)c2)cc1C1=C(O)C2(CCCCC2)NC1=O in your answer.
// result 6.71

// query Read off the recorded pIC50 for Cc1ccc(-c2ccc(Cl)cc2)cc1C1C(=O)N(C)OC(C)(C)C1=O (centres unmarked)
// result 4.72

// query Input COC1CCC2(C1)NC(=O)C(c1c(C)ccc(-c3ccc(Cl)cc3)c1C)=C2O (centres unmarked) , output reported pIC50.
// result 5.81

// query Respond only with pIC50 recorded for Cc1ccc(-c2ccc(Cl)cc2)cc1C1=C(O)C2(CCC3(CC2)OCC(C)O3)NC1=O (centres unmarked)
// result 6.56

// query Determine its reported pIC50: CO[C@H]1CC[C@]2(CC1)NC(=O)C(c1cc(-c3ccc(Cl)cc3Cl)ccc1C)=C2O
// result 6.79

// query Return pIC50 (reported value) for this compound: O=C1C(c2cc(-c3ccc(F)cc3F)ccc2Cl)C(=O)N2CCOCCN12
// result 5.87

// query Report pIC50 for O=C1N[C@]2(CC[C@@H](C(F)(F)F)CC2)C(O)=C1c1cc(-c2ccc(F)c(F)c2)ccc1Cl
// result 6.68

// query Entry CO[C@H]1CC[C@]2(CC1)NC(=O)C(c1cc(-c3ccc(F)c(F)c3)ccc1Cl)=C2O needs its pIC50 filled in; supply it.
// result 6.57

// query State, in one line, measured pIC50 of CO[C@H]1CC[C@]2(CC1)NC(=O)C(c1cc(-c3ccc(F)cc3)ccc1Cl)=C2O
// result 5.77

// query Read off the recorded pIC50 for Cc1cc(C)c(-c2ccc(Cl)cc2)cc1C1=C(O)[C@]2(CC[C@H](C(F)(F)F)CC2)NC1=O
// result 5.99

// query Please give the documented pIC50 of CC1CCC2(CC1)NC(=O)C(c1cc(-c3ccc(Cl)cc3)ccc1Cl)=C2O (centres unmarked)
// result 6.82

// query Given the compound CO[C@H]1CC[C@]2(CC1)NC(=O)C(c1cc(-c3ccc(Cl)cc3)c(C)cc1C)=C2O , write its reported pIC50.
// result 6.04

// query Given COC1CCC2(CC1)NC(=O)C(c1c(C)cc(C)c(-c3ccc(Cl)cc3)c1C)=C2O (centres unmarked) , respond with its pIC50.
// result 4.94

// query Look up pIC50 of Cc1ccc(-c2ccc(F)c(F)c2)cc1C1=C(O)C2(CCC3(CCCO3)CC2)NC1=O (centres unmarked) and report it.
// result 6.41
